Origin of values: paper PMC5765368

Biological target: Tn5 transposase R27S,E54K,L372P (bacterial transposon Tn5 (expressed in …, UniProt Q46731 1-476, R27S;E54K;L372P))
Test: ITC; ITC: 50 mM Tris pH 7.5, 800 mM NaCl, 0.1 mM EDTA, 5% glycerol, 25 C; 100 uM DNA titrated into 4 uM protein
Settings: protein: recombinant; tags: His6-Sumo3 removed by SenP2; one extra N-terminal Ser remains; chain copies: 2; 19 bp duplex with 5' overhang (14 nt for ME-A, 15 nt for ME-B)
Measurement kind: Kd (µM)
# unit: µM | format: bare number

The recorded Kd for entry annealed Tn5 linker oligonucleotide (mosaic end); Tn5ME-A/Tn5MErev or Tn5ME-B/Tn5MErev, not stated which (dsDNA, 5' phosphate on Tn5MErev) DNA 1: TCGTCGGCAGCGTCAGATGTGTATAAGAGACAG DNA 2: CTGTCTCTTATACACATCT equals 12.9
